# System: HCT-116 colon
# assay method text: NCI tumour cell line growth inhibition, 48 h
Consider the following compounds; for each one, report its GI50.

Look up and state reported GI50 for COc1cnc2c(c1)C(=O)c1c-2n(CCCNC(C)C)c(=O)c2cc(F)ccc12
0.093 µM

Look up and state reported GI50 for O=C(NO)c1ccc(Cn2c(=O)n(-c3ccccc3F)c(=O)c3ccccc32)cc1
1.14 µM

Look up and state reported GI50 for COc1ccc(CNc2nc3cc(N)cc(N)c3nc2-c2ccccc2)cc1
14.4 µM

Look up and state reported GI50 for COc1cc(-c2nn(-c3cccc(NC(=O)c4ccc(N5CCOCC5)c(C(F)(F)F)c4)c3)cc2-c2ccncc2)ccc1Cl
0.299 µM

Look up and state reported GI50 for NC1=NCCN1CC(=O)O
> 10000 µM

Look up and state reported GI50 for COc1ccc(-c2nc(N3CCN(C(=O)C4CCCCC4)CC3)c3c4c(sc3n2)CCCC4)cc1
34.2 µM

Look up and state reported GI50 for CCCCCCc1nc2nc(Cl)c(Cl)nc2[nH]1
6.83 µM

Look up and state reported GI50 for CCC[CH2][Sn]1([CH2]CCC)[O]C(=O)c2ccc(C)cc2[O]1
0.985 µM

Look up and state reported GI50 for C=C(CN1CCN(c2cccc(C(F)(F)F)n2)CC1)c1ccc(C(=S)Nc2ccccc2N)cc1
2.76 µM

Look up and state reported GI50 for CN(C)CCCNC(=O)c1cncnc1Nc1ccc(OCc2cccc(F)c2)c(Cl)c1
1.47 µM

Look up and state reported GI50 for Cc1cn2c(/C=N/N=C(N)N)c(-c3cccnc3)nc2s1
8.62 µM

Look up and state reported GI50 for CC[C@@]1(O)C(=O)OCc2c1cc1n(c2=O)Cc2c-1nc1cc3c(cc1c2C)OCO3
0.0181 µM

====

# Tested on: NCI-H23 lung
# assay method text: NCI tumour cell line growth inhibition, 48 h
reported endpoint: GI50

Look up and state reported GI50 for O=C(NCc1ccncc1)C12CC3CC(C1)CC(c1ccc(Cl)cc1)(C3)C2
14.4 µM

Look up and state reported GI50 for O=C(NCc1ccco1)c1ccc(NC2=C(Cl)C(=O)N(Cc3ccccc3)C2=O)cc1
13.8 µM

Look up and state reported GI50 for CC/C(=C(/c1ccc(O)cc1)c1ccc(OCCN2CCCCC2)cc1)c1ccc(OC)cc1
10.1 µM

Look up and state reported GI50 for C/C(=C\COc1c2c(cc3c1CCO3)OC1(C=C2)OC(CC/C(C)=C/COc2c3ccoc3cc3oc(=O)ccc23)C(C)(C)O1)CCC(O)C(C)(C)O (stereo not given)
33.7 µM

Look up and state reported GI50 for CN(C)CCOC(c1ccccc1)c1ccccc1
38 µM

Look up and state reported GI50 for CC(=O)[C@@]1(O)[C@H](C)C[C@H]2[C@@H]3C=C(C)C4=Cc5c(cnn5-c5ccccc5)C[C@]4(C)[C@H]3[C@@H](O)C[C@@]21C
2.48 µM

Look up and state reported GI50 for COc1ccc(-c2cc(-c3ccc(O)cc3)nc3n[nH]c(N)c23)cc1
26.5 µM

Look up and state reported GI50 for N#CC1=C(N)NC(=S)NC12Nc1ccccc1N2
36.7 µM

Look up and state reported GI50 for CCCCN(CCCC)CCCn1c(=O)c2c3ccccc3n(C)c2n2nnc(-c3ccccc3)c12
13 µM

Look up and state reported GI50 for Cc1ccc(-c2nc(N3CCCNCC3)c3oc(-c4ccccc4)nc3n2)cc1
1.95 µM
